The compounds listed here are annotated with their TGI.
- Test system: A549
- procedure details: Growth inhibition of human A549/ATCC cells after 48 hrs by sulforhodamine B assay
- Type: functional
- experimental context: A549, 48 h

Look over these answered cases.
# molecular string, TGI
data = [
    ("COc1cc(-c2nn(-c3cccc(NC(=O)Nc4cccc(C(F)(F)F)c4)c3)cc2-c2ccncc2)ccc1Cl", "> 50 µM"),
    ("O=C(Nc1cccc(-n2cc(-c3ccncc3)c(-c3ccc(Cl)c(O)c3)n2)c1)Nc1cccc(C(F)(F)F)c1", "> 32.5 µM"),
    ("O=C(Nc1cccc(-n2cc(-c3ccncc3)c(-c3ccc(Cl)c(O)c3)n2)c1)Nc1cc(C(F)(F)F)cc(C(F)(F)F)c1", "1.69 µM"),
]

Now take the following compound into account.
What measured TGI goes with O=C(Nc1cccc(-n2cc(-c3ccncc3)c(-c3ccc(Cl)c(O)c3)n2)c1)Nc1ccc(Cl)c(Cl)c1 ?
> 32.5 µM

----------
- Test system: MDA-MB-435
- procedure details: Growth inhibition of human MDA-MB-435 cells after 48 hrs by sulforhodamine B assay
- Type: functional, cell-based
- experimental context: MDA-MB-435, 48 h
The compounds listed here are annotated with their IC50.
Respond numerically; units are nM and should not be typed.

# molecular string, endpoint, value measured
rows = [
    ("COc1cc(-c2nn(-c3cccc(NC(=O)Nc4ccc(Cl)c(Cl)c4)c3)cc2-c2ccncc2)ccc1Cl", "IC50", 940),
]

Now take the following compound into account.
What measured IC50 goes with O=C(Nc1cccc(-n2cc(-c3ccncc3)c(-c3ccc(Cl)c(O)c3)n2)c1)Nc1ccc(Cl)c(C(F)(F)F)c1 ?
660

----------
- Test system: Malme-3M
- procedure details: Growth inhibition of human MALME-3M cells after 48 hrs by sulforhodamine B assay
- Type: functional
endpoint: GI50 (µM)
Respond numerically; units are µM and should not be typed.

Look over these answered cases.
# molecular string, endpoint, value measured
rows = [
    ("O=C(Nc1cccc(-n2cc(-c3ccncc3)c(-c3ccc(Cl)c(O)c3)n2)c1)Nc1cccc(C(F)(F)F)c1", "GI50", 1.81),
    ("COc1cc(-c2nn(-c3cccc(NC(=O)c4cccc(C(F)(F)F)c4)c3)cc2-c2ccncc2)ccc1Cl", "GI50", 1.99),
    ("COc1cc(-c2nn(-c3cccc(NC(=O)c4ccc(Cl)c(C(F)(F)F)c4)c3)cc2-c2ccncc2)ccc1Cl", "GI50", 1.18),
]

Now take the following compound into account.
What measured GI50 goes with COc1cc(-c2nn(-c3cccc(NC(=O)Nc4cc(C(F)(F)F)cc(C(F)(F)F)c4)c3)cc2-c2ccncc2)ccc1Cl ?
0.892

----------
- Tested on: HOP-62
- procedure details: Growth inhibition of human HOP62 cells after 48 hrs by sulforhodamine B assay
- Format: functional
- experimental context: HOP-62, 48 h
endpoint: TGI (µM)
Respond numerically; units are µM and should not be typed.

What measured TGI goes with COc1cc(-c2nn(-c3cccc(NC(=O)Nc4cccc(C(F)(F)F)c4)c3)cc2-c2ccncc2)ccc1Cl ?
4.07

How about COc1cc(-c2nn(-c3cccc(NC(=O)Nc4cc(C(F)(F)F)cc(C(F)(F)F)c4)c3)cc2-c2ccncc2)ccc1Cl ?
1.59

How about COc1cc(-c2nn(-c3cccc(NC(=O)Nc4ccc(Cl)c(C(F)(F)F)c4)c3)cc2-c2ccncc2)ccc1Cl ?
6.49

How about O=C(Nc1cccc(-n2cc(-c3ccncc3)c(-c3ccc(Cl)c(O)c3)n2)c1)Nc1ccc(Cl)c(C(F)(F)F)c1 ?
7.83
